B1: His-tag-attached wild-type Hydrogenobacter thermophilus cytochrome c552, holo protein [modified: heme c attached (holo protein); heme c attached (holo protein)] [Hydrogenobacter thermophilus] / itself (parent)
chain: NEQLAKQKGCMACHDLKAKKVGPAYADVAKKYAGRKDAVDYLAGKIKKGGSGVWGSVPMPPQNVTDAEAKQLAQWILSIK

- Variants of: B1
- assay summary: Ni affinity chromatography (peak areas)
- measurement conditions: with itself; protein obtained from E. coli cells; parent: 68; read off a plot
reported property: screen value (%)

chain 1 Y32F Y41E :: 76
chain 1 A5F M11V :: 83
chain 1 A5F M11V Y32F Y41E I76V :: 92
chain 1 I76V :: 75

The measurements presented in this section are drawn from paper PMC4738263.
